# test description: LNP size and polydispersity index by dynamic light scattering (Zetasizer Nano ZS)
# Assay type: physicochemical
# cond: LNP with mRNA payload formulated with the lipid; active lipid/Cholesterol/DOPC/DMG-PEG 16.8/4.0/2.0/1.0; Lipids:mRNA 25:1; PBS pH 7.4, 25° C.
Consider the following molecules and their measured PDI readings.
quantity kind: PDI

[[record]]
molecule = "CCCCCCCCCC(CC)OC(=O)OCCOC(=O)CCN(CCCN(C)CCCN(CCC(=O)OCCOC(=O)OC(CC)CCCCCCCCC)CCC(=O)OCCOC(=O)OC(CC)CCCCCCCCC)CCC(=O)OCCOC(=O)OC(CC)CCCCCCCCC (stereo not shown) [Lipid L0660]"
quantity_kind = "PDI"
recorded_value = 0.11

[[record]]
molecule = "CCCCC/C=C\\CCCOC(=O)CCN(CCCN(C)CCCN(CCC(=O)OCCC/C=C\\CCCCC)CCC(=O)OCCC/C=C\\CCCCC)CCC(=O)OCCC/C=C\\CCCCC [Lipid L0824]"
quantity_kind = "PDI"
recorded_value = 0.12

[[record]]
molecule = "CCCCCCC(CCCC)COC(=O)OCCOC(=O)CCN(CCCN(CCCNC(=S)NC)CCCN(CCC(=O)OCCOC(=O)OCC(CCCC)CCCCCC)CCC(=O)OCCOC(=O)OCC(CCCC)CCCCCC)CCC(=O)OCCOC(=O)OCC(CCCC)CCCCCC (stereo not shown) [Lipid L0773]"
quantity_kind = "PDI"
recorded_value = 0.089

[[record]]
molecule = "CC/C=C\\CCCCOC(=O)CCN(CCCN(C)CCCN(CCC(=O)OCCOC(=O)OCC(CCCC)CCCCCC)CCC(=O)OCCOC(=O)OCC(CCCC)CCCCCC)CCC(=O)OCCOC(=O)OCC(CCCC)CCCCCC (stereo not shown) [Lipid L0830]"
quantity_kind = "PDI"
recorded_value = 0.105


---

# test description: LNP size and polydispersity index by dynamic light scattering (Zetasizer Nano ZS)
# Format: physicochemical
# cond: LNP with mRNA payload formulated with the lipid; active lipid/Cholesterol/DOPC/DMG-PEG 16.8/4.0/2.0/1.0; Lipids:mRNA 25:1; PBS pH 7.4, 25° C.
Consider the following compounds and their measured Size (nm) readings.
quantity kind: Size (nm)

[[record]]
compound = "CCC1CC1CCCCSSCCOC(=O)CCN(CCCN(C)CCCN(CCC(=O)OCCSSCCCCC1CC1CC)CCC(=O)OCCSSCCCCC1CC1CC)CCC(=O)OCCSSCCCCC1CC1CC (centres unmarked)"
quantity_kind = "Size (nm)"
recorded_value = 151.8

[[record]]
compound = "CCCCCCCC(CCCCCC)OC(=O)OCCOC(=O)CCN(CCCN(C)CCCN(CCC(=O)OCCOC(=O)OC(CCCCCC)CCCCCCC)CCC(=O)OCCOC(=O)OC(CCCCCC)CCCCCCC)CCC(=O)OCCOC(=O)OC(CCCCCC)CCCCCCC (centres unmarked)"
quantity_kind = "Size (nm)"
recorded_value = 119.4

[[record]]
compound = "CC/C=C\\CCCC[Se]CCOC(=O)CCN(CCCN(C)CCCN(CCC(=O)OCC[Se]CCCC/C=C\\CC)CCC(=O)OCC[Se]CCCC/C=C\\CC)CCC(=O)OCC[Se]CCCC/C=C\\CC"
quantity_kind = "Size (nm)"
recorded_value = 118.7

[[record]]
compound = "CCCCCCC(CCCC)COC(=O)OCCOC(=O)CCN(CCCN(CCCN(CCC(=O)OCCOC(=O)OCC(CCCC)CCCCCC)CCC(=O)OCCOC(=O)OCC(CCCC)CCCCCC)CCCN1CCN(C)CC1)CCC(=O)OCCOC(=O)OCC(CCCC)CCCCCC (centres unmarked)"
quantity_kind = "Size (nm)"
recorded_value = 124.4

[[record]]
compound = "CCCC/C=C\\CCOC(=O)CCN(CCCN(C)CCCN(CCC(=O)OCC/C=C\\CCCC)CCC(=O)OCC/C=C\\CCCC)CCC(=O)OCC/C=C\\CCCC"
quantity_kind = "Size (nm)"
recorded_value = 141


---

Consider the following compounds and their measured [mRNA] Ug/ml readings.
# test description: Encapsulation efficiency and mRNA quantity by Ribogreen fluorescence plate assay
# Assay type: physicochemical
# cond: LNP with mRNA payload formulated with the lipid; 16.8/4.0/2.0/1.0; Lipids:mRNA 25:1
quantity kind: [mRNA] Ug/ml (Ug/ml)

[[record]]
compound = "CC(C)CCCCCCSSCCOC(=O)CCN(CCCN(C)CCCN(CCC(=O)OCCSSCCCCCCC(C)C)CCC(=O)OCCSSCCCCCCC(C)C)CCC(=O)OCCSSCCCCCCC(C)C"
recorded_value = 99.9

[[record]]
compound = "CCCCC/C=C\\CCCOC(=O)CCN(CCCN(C)CCCN(CCC(=O)OCCC/C=C\\CCCCC)CCC(=O)OCCC/C=C\\CCCCC)CCC(=O)OCCC/C=C\\CCCCC"
recorded_value = 93.4

[[record]]
compound = "CCCCCCCC(CCCCCC)OC(=O)OCCOC(=O)CCN(CCCN(C)CCCN(CCC(=O)OCCOC(=O)OC(CCCCCC)CCCCCCC)CCC(=O)OCCOC(=O)OC(CCCCCC)CCCCCCC)CCC(=O)OCCOC(=O)OC(CCCCCC)CCCCCCC (centres unmarked)"
recorded_value = 65.6

[[record]]
compound = "CCCCCCC(CCCC)COC(=O)CCOC(=O)CCN(CCC(=O)OCCC(=O)OCC(CCCC)CCCCCC)CCN(C)CCN(CCC(=O)OCCC(=O)OCC(CCCC)CCCCCC)CCC(=O)OCCC(=O)OCC(CCCC)CCCCCC (centres unmarked)"
recorded_value = 78.9

[[record]]
compound = "CCCCCCC(CCCC)CNC(=O)SCCOC(=O)CCN(CCCN(C)CCCN(CCC(=O)OCCSC(=O)NCC(CCCC)CCCCCC)CCC(=O)OCCSC(=O)NCC(CCCC)CCCCCC)CCC(=O)OCCSC(=O)NCC(CCCC)CCCCCC (centres unmarked)"
recorded_value = 61.1


---

# test description: LNP size and polydispersity index by dynamic light scattering (Zetasizer Nano ZS)
# Format: physicochemical
# cond: LNP with mRNA payload formulated with the lipid; active lipid/Cholesterol/DOPC/DMG-PEG 16.8/4.0/2.0/1.0; Lipids:mRNA 25:1; PBS pH 7.4, 25° C.
quantity kind: Size (nm)

[[record]]
molecule = "CCCCCCCCCC(CC)OC(=O)OCCOC(=O)CCN(CCCN(C)CCCN(CCC(=O)OCCOC(=O)OC(CC)CCCCCCCCC)CCC(=O)OCCOC(=O)OC(CC)CCCCCCCCC)CCC(=O)OCCOC(=O)OC(CC)CCCCCCCCC (stereo not drawn) [Lipid L0660]"
recorded_value = 122.2

[[record]]
molecule = "CCCCCCC(CCCC)COC(=O)OCCOC(=O)CCN(CCCN(CCCO)CCCN(CCC(=O)OCCOC(=O)OCC(CCCC)CCCCCC)CCC(=O)OCCOC(=O)OCC(CCCC)CCCCCC)CCC(=O)OCCOC(=O)OCC(CCCC)CCCCCC (stereo not drawn)"
recorded_value = 246.5

[[record]]
molecule = "CCCCCCC(CCCC)CNC(=O)NCCNC(=O)CCN(CCCN(C)CCCN(CCC(=O)NCCNC(=O)NCC(CCCC)CCCCCC)CCC(=O)NCCNC(=O)NCC(CCCC)CCCCCC)CCC(=O)NCCNC(=O)NCC(CCCC)CCCCCC (stereo not drawn)"
recorded_value = 5911

[[record]]
molecule = "CC/C=C\\CCCCOC(=O)CCN(CCCN(C)CCCN(CCC(=O)OCCCC/C=C\\CC)CCC(=O)OCCOC(=O)OCC(CCCC)CCCCCC)CCC(=O)OCCCC/C=C\\CC (stereo not drawn)"
recorded_value = 98.3

[[record]]
molecule = "CC/C=C\\CCCCOC(=O)CCN(CCCN(C)CCCN(CCC(=O)OCCOC(=O)OCC(CCCC)CCCCCC)CCC(=O)OCCOC(=O)OCC(CCCC)CCCCCC)CCC(=O)OCCOC(=O)OCC(CCCC)CCCCCC (stereo not drawn)"
recorded_value = 125.1

[[record]]
molecule = "CCCCCCCCC(CCC)OC(=O)OCCOC(=O)CCN(CCCN(C)CCCN(CCC(=O)OCCOC(=O)OC(CCC)CCCCCCCC)CCC(=O)OCCOC(=O)OC(CCC)CCCCCCCC)CCC(=O)OCCOC(=O)OC(CCC)CCCCCCCC (stereo not drawn)"
recorded_value = 186.1

[[record]]
molecule = "CCCCCCC(CCCC)COC(=O)OCCOC(=O)CCN(CCCN(CCCNC(=S)NC)CCCN(CCC(=O)OCCOC(=O)OCC(CCCC)CCCCCC)CCC(=O)OCCOC(=O)OCC(CCCC)CCCCCC)CCC(=O)OCCOC(=O)OCC(CCCC)CCCCCC (stereo not drawn)"
recorded_value = 135.3

[[record]]
molecule = "CCCCCCC(CCCC)COC(=O)CCOC(=O)CCN(CCC(=O)OCCC(=O)OCC(CCCC)CCCCCC)CCN(C)CCN(CCC(=O)OCCC(=O)OCC(CCCC)CCCCCC)CCC(=O)OCCC(=O)OCC(CCCC)CCCCCC (stereo not drawn)"
recorded_value = 99.86

[[record]]
molecule = "CCCCCCC(CCCC)COC(=O)NCCNC(=O)CCN(CCCN(C)CCCN(CCC(=O)OCCNC(=O)OCC(CCCC)CCCCCC)CCC(=O)OCCNC(=O)OCC(CCCC)CCCCCC)CCC(=O)NCCNC(=O)OCC(CCCC)CCCCCC (stereo not drawn)"
recorded_value = 97

